TEST METHOD NOTES: Mouse PK assay
Type: in vivo
ASSAY CONTEXT: mouse; po, 50 mg/kg, B6 female mice, plasma
RECORDED ENDPOINT: Cmax (µg/mL)

Sample records with Cmax:
chem_smiles=CNC(=O)c1c(C)oc2cc(Oc3ccnc4cc(-c5nccn5C)sc34)ccc12 reading_unit=µg/mL recorded_value=24.8
chem_smiles=CNC(=O)c1c(C)n(C)c2cc(Oc3ccnc4cc(-c5nccn5C)sc34)ccc12 reading_unit=µg/mL recorded_value=28.8
chem_smiles=CNC(=O)c1c(C)sc2cc(Oc3ccnc4cc(C(=O)N5CC[C@@H](OC)C5)sc34)ccc12 reading_unit=µg/mL recorded_value=2.34

P. CNC(=O)c1c(C)n(C)c2cc(Oc3ccnc4cc(C(=O)N5CC[C@@H](O)C5)sc34)ccc12
Q. CNC(=O)c1c(C)n(C)c2cc(Oc3ccnc4cc(C(=O)N5CC[C@@H](OC)C5)sc34)ccc12
R. Cc1sc2cc(Oc3ccnc4cc(C(=O)N5CCC[C@H]5CO)sc34)ccc2c1C(=O)NC1CC1
Inquiry: Put the molecules in ascending order of Cmax. As an answer, provide the labels arranged in the order called for.
Reply text: P, R, Q
(P: 0.051 µg/mL, R: 0.666 µg/mL, Q: 4.12 µg/mL)

a. CNC(=O)c1c(C)sc2cc(Oc3ccnc4cc(-c5nccn5C)sc34)ccc12
b. CNC(=O)c1c(C)sc2cc(Oc3ccnc4cc(C(=O)N5CCC[C@H]5CO)sc34)ccc12
c. CNC(=O)c1c(C)sc2cc(Oc3ccnc4cc(C(=O)N5C[C@H](OC)[C@H](OC)C5)sc34)ccc12
d. CNC(=O)c1c(C)sc2cc(Oc3ccnc4cc(C(=O)N5CC[C@@H](O)C5)sc34)ccc12
Inquiry: Please put the entries in order of rising Cmax. Put the labels in the requested order and list them out.
Reply text: d, b, c, a

Values were extracted from patent US7045528B2.
